Measured values drawn from ChEMBL document CHEMBL1145835 for this set.

metric-name: Ki (nM)
Report only the number, with the unit nM understood.

# query: Ki | item "CN1CCC(c2c[nH]c3ccc(NC(=O)c4ccc(F)cc4)nc23)CC1" | system: 5-hydroxytryptamine receptor 1E (Homo sapiens, UniProt P28566)
660

* * *

study-system: UniProt:P28223
Sequence (P28223 whole entry): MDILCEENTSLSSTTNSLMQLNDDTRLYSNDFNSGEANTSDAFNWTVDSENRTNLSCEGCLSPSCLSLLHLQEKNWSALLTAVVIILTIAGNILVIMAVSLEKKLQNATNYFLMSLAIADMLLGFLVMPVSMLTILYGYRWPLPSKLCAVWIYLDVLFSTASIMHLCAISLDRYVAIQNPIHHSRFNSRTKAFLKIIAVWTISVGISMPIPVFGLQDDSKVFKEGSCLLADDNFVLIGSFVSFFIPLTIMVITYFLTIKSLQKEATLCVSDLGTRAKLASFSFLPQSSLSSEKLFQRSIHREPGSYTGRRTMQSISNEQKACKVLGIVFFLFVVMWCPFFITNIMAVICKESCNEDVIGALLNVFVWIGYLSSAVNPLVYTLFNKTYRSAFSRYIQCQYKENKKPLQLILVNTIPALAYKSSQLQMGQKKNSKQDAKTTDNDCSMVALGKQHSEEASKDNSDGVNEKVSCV
metric-name: Ki (µM)
Just the number in µM, nothing appended.

# query: Ki of entry "CN1CCC(c2c[nH]c3ccc(NC(=O)c4ccc(F)cc4)nc23)CC1"
4.8

* * *

study-system: UniProt P41595
Sequence (P41595 whole entry): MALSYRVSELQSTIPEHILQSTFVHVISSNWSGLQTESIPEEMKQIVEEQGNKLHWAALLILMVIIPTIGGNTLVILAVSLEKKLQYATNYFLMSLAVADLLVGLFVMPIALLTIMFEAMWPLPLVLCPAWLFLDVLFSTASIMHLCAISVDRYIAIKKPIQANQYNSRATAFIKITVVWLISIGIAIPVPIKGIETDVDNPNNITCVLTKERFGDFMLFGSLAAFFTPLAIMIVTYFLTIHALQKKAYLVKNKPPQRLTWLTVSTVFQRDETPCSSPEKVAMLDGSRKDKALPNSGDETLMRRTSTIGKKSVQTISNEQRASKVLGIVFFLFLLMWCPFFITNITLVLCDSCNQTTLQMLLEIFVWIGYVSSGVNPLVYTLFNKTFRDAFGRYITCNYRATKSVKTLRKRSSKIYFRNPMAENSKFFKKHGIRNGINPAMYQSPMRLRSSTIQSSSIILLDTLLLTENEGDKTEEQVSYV
procedure-details: In vitro binding affinity by radioligand binding assay using cell line expressing human 5-hydroxytryptamine 2B receptor
pKi: −log10 of the molar value.
metric-name: pKi

What does the data say about its pKi? Entry: "CCC(=O)Nc1ccc2[nH]cc(C3CCN(C)CC3)c2n1"
< 5.00
